The next entries give measured pIC50 for Acetylcholinesterase (Electrophorus electricus, UniProt O42275).
The quantity pIC50 is defined as the negative base-10 logarithm of the molar concentration.

CHEMICAL_STRUCTURE: COc1cc2c(cc1OC)C(=O)/C(=C/c1cccc(O)c1CN1CCN(C)CC1)CO2
pIC50: 4.08

Request - read-out pIC50 | tested on Acetylcholinesterase (Electrophorus electricus, UniProt O42275) | compound COc1cc2c(cc1OC)C(=O)/C(=C/c1ccc(CN(C)C)c(O)c1)CO2 6.27

###

Biological target: Amine oxidase [flavin-containing] B (Homo sapiens, UniProt P27338)
Sequence (P27338 whole entry): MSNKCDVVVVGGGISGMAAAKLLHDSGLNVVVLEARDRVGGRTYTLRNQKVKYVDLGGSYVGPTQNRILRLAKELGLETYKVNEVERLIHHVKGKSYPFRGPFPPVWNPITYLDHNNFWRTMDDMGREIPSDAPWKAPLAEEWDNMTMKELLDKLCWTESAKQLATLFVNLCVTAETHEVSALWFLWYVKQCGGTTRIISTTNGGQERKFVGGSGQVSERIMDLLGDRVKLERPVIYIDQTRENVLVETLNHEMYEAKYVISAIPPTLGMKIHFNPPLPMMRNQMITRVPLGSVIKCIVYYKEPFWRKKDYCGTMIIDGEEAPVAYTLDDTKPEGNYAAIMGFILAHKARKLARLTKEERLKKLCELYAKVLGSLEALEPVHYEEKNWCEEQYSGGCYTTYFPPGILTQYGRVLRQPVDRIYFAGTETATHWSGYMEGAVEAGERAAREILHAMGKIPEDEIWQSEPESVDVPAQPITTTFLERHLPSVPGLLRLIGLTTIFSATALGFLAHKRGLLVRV
Assay: Inhibition of human recombinant MAO-B using kynuramine as substrate at 20 uM measured after 30 mins by fluorescence assay relative to control
Details: 0.5 h
Cut-off 40% on inhibition at 20 µM, inclusive. At or above means true (1); below means false (0).

Examples from the recorded data:
CHEMICAL_STRUCTURE: COc1cc2c(cc1OC)C(=O)/C(=C/c1cccc(O)c1CN1CCN(C)CC1)CO2
CLASS: false (0)
//
CHEMICAL_STRUCTURE: COc1ccccc1CN(C)Cc1c(O)cccc1/C=C1\COc2cc(OC)c(OC)cc2C1=O
CLASS: true (1)

Determine whether this molecule has inhibition at 20 µM no lower than 40%: CCN(CC)Cc1c(O)cccc1/C=C1\COc2cc(OC)c(OC)cc2C1=O false (0)

Also check COc1cc2c(cc1OC)C(=O)/C(=C/c1cccc(O)c1CN1CCOCC1)CO2 false (0)

Next: CCN(Cc1ccccc1)Cc1c(O)cccc1/C=C1\COc2cc(OC)c(OC)cc2C1=O false (0)

###

Assay: Cytotoxicity against rat PC12 cells assessed as cell viability at 100 uM measured after 48 hrs by MTT assay relative to control
Assay type: toxicity, PC-12
Conditions: read-out: Activity
PARAMETER: viability at 48 h, 100 µM

Fill in the blank: the reported viability at 48 h, 100 µM of COc1cc2c(cc1OC)C(=O)/C(=C/c1ccc(CN3CCCCC3)c(O)c1)CO2 is ____. 63.4%

###

Assay: Permeability of the compound at 100 ug/ml after 18 hrs by PAMPA assay
Type: ADME
Details: read-out: permeability
PARAMETER: Papp at 18 h, 100 ug/ml (×10⁻⁶ cm/s)
Numbers only; they are read as ×10⁻⁶ cm/s.

// lookup Papp at 18 h, 100 ug/ml for CCN(Cc1ccc(/C=C2\COc3cc(OC)c(OC)cc3C2=O)cc1O)Cc1ccccc1N(C)C 10.5

Try the compound COc1cc2c(cc1OC)C(=O)/C(=C/c1ccc(CN3CCCCC3)c(O)c1)CO2 10.4

What would you report for CCN(Cc1ccc(/C=C2\COc3cc(OC)c(OC)cc3C2=O)cc1O)Cc1ccccc1OC ? 6.05

Can you check COc1cc2c(cc1OC)C(=O)/C(=C/c1ccc(CN3CCCC3)c(O)c1)CO2 next? 11.1

###

// Acetylcholinesterase (Electrophorus electricus) IC50 records
Note: unit µM is implicit; provide only the numeric part.

CHEMICAL_STRUCTURE: COc1ccccc1CN(C)Cc1ccc(/C=C2\COc3cc(OC)c(OC)cc3C2=O)cc1O
IC50 [µM]: 16.4

CHEMICAL_STRUCTURE: COc1cc2c(cc1OC)C(=O)/C(=C/c1cccc(O)c1)CO2
IC50 [µM]: 59.3

CHEMICAL_STRUCTURE: CCN(CC)Cc1c(O)cccc1/C=C1\COc2cc(OC)c(OC)cc2C1=O
IC50 [µM]: 37.4

Given the molecule COc1cc2c(cc1OC)C(=O)/C(=C/c1ccc(O)c(CN3CCCCC3)c1)CO2 , what is its reported IC50? 0.928

Field entry: CCN(Cc1ccc(/C=C2\COc3cc(OC)c(OC)cc3C2=O)cc1O)Cc1ccccc1OC 15.7
